This listing pairs molecules with measured Aholo/Aapo.
MEASUREMENT_PROTOCOL: Calcium (Ca^2+) binding assay: fluorescence/absorbance titration of purified protein
STUDY_CONDITIONS: absorbance at 569

The examples below pair each entry with its known result.
MOLECULE: mApple A145D/K198D/R216E: mApple variant, SEQ ID NO: 26 (protein) EENNMAIIKEFMRFKVHMEGSVNGHEFEIEGEGEGRPYEAFQTAKLKVTKGGPLPFAWDILSPQFMYGSKVYIKHPADIPDYFKLSFPEGFRWERVMNFEDGGIIHVNQDSSLQDGVFIYKVKLRGTNFPSDGPVMQKKTMGWEDSEERMYPEDGALKSEIKKRLKLKDGGHYAAEVKTTYKAKKPVQLPGAYIVDIDLDIVSHNEDYTIVEQYEEAEGRHSTGGMDELYK
Aholo/Aapo: 1.57 (569)
//
MOLECULE: mApple A145E/K198D/R216E: mApple variant, SEQ ID NO: 25; starting point of mitochondria indicator (protein) EENNMAIIKEFMRFKVHMEGSVNGHEFEIEGEGEGRPYEAFQTAKLKVTKGGPLPFAWDILSPQFMYGSKVYIKHPADIPDYFKLSFPEGFRWERVMNFEDGGIIHVNQDSSLQDGVFIYKVKLRGTNFPSDGPVMQKKTMGWEESEERMYPEDGALKSEIKKRLKLKDGGHYAAEVKTTYKAKKPVQLPGAYIVDIDLDIVSHNEDYTIVEQYEEAEGRHSTGGMDELYK
Aholo/Aapo: 1.60 (569)
//
MOLECULE: mApple A145E/K198D/R216E/E218D: mApple variant, SEQ ID NO: 29 (protein) EENNMAIIKEFMRFKVHMEGSVNGHEFEIEGEGEGRPYEAFQTAKLKVTKGGPLPFAWDILSPQFMYGSKVYIKHPADIPDYFKLSFPEGFRWERVMNFEDGGIIHVNQDSSLQDGVFIYKVKLRGTNFPSDGPVMQKKTMGWEESEERMYPEDGALKSEIKKRLKLKDGGHYAAEVKTTYKAKKPVQLPGAYIVDIDLDIVSHNEDYTIVEQYEEADGRHSTGGMDELYK
Aholo/Aapo: 1.59 (569)
//
MOLECULE: mApple A145D/E147D/K198D/R216E: mApple variant, SEQ ID NO: 28 (protein) EENNMAIIKEFMRFKVHMEGSVNGHEFEIEGEGEGRPYEAFQTAKLKVTKGGPLPFAWDILSPQFMYGSKVYIKHPADIPDYFKLSFPEGFRWERVMNFEDGGIIHVNQDSSLQDGVFIYKVKLRGTNFPSDGPVMQKKTMGWEDSDERMYPEDGALKSEIKKRLKLKDGGHYAAEVKTTYKAKKPVQLPGAYIVDIDLDIVSHNEDYTIVEQYEEAEGRHSTGGMDELYK
Aholo/Aapo: 1.84 (569)

# next molecule below
IN: # query: Aholo/Aapo of entry R-CatchER: red genetically encoded Ca^2+ indicator, mApple A145E/K198D/R216D, SEQ ID NO: 12 (protein) EENNMAIIKEFMRFKVHMEGSVNGHEFEIEGEGEGRPYEAFQTAKLKVTKGGPLPFAWDILSPQFMYGSKVYIKHPADIPDYFKLSFPEGFRWERVMNFEDGGIIHVNQDSSLQDGVFIYKVKLRGTNFPSDGPVMQKKTMGWEESEERMYPEDGALKSEIKKRLKLKDGGHYAAEVKTTYKAKKPVQLPGAYIVDIDLDIVSHNEDYTIVEQYEDAEGRHSTGGMDELYK
OUT: 4.33 (569)
